# Test system: Bacteria
# PROTOCOL_TEXT: Geometric mean of the four MIC's of different sensitive gram negative bacteria expressed
# Assay type: functional
Please note: Geometric mean exactly at 60 µM is Not fulfilled. Only values below 60 µM get Fulfilled.

Worked set:
INSERT INTO results (compound, cat) VALUES
  ('CO[C@@]1(NC(=O)Cc2ccccc2)C(=O)N2C(C(=O)[O-])=C(CC#N)CO[C@@H]21.[Na+]', 'Not fulfilled'),
  ('CO[C@@]1(NC(=O)Cc2ccccc2)C(=O)N2C(C(=O)[O-])=C(CO)CO[C@@H]21.[Na+]', 'Not fulfilled'),
  ('CO[C@@]1(NC(=O)Cc2ccccc2)C(=O)N2C(C(=O)[O-])=C(C[n+]3ccccc3)COC21 (stereo partly drawn)', 'Fulfilled'),
  ('CO[C@@]1(NC(=O)Cc2ccccc2)C(=O)N2C(C(=O)[O-])=C(COC(N)=O)COC21.[Na+] (stereo partly drawn)', 'Fulfilled'),
  ('CO[C@@]1(NC(=O)Cc2ccccc2)C(=O)N2C(C(=O)[O-])=C(CSC)CO[C@@H]21.[Na+]', 'Not fulfilled');

Geometric mean strictly < 60 µM for this compound? `COCC1=C(C(=O)[O-])N2C(=O)[C@](NC(=O)Cc3ccccc3)(OC)[C@H]2OC1.[Na+]` Not fulfilled

Subsequent entry: `CO[C@@]1(NC(=O)Cc2ccccc2)C(=O)N2C(C(=O)[O-])=C(COC(C)=O)CO[C@@H]21.[Na+]` Fulfilled

Also `CO[C@@]1(NC(=O)Cc2ccccc2)C(=O)N2C(C(=O)[O-])=C(CSc3nnnn3C)CO[C@@H]21.[Na+]` ? Fulfilled
